// values below are reported protein stability index
B1: BRF1 (parent)
chain: CTACGSVLEDNIIVSEVQFVESSG

- Variants of: B1
- assay notes: protein stability index of a GFP-peptide fusion (GPS, HEK-293T) (PSI 1-6); higher = more stable;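 further: lentivirally expressed fusions sorted by FACS into six bins by GFP to DsRed ratio, PSI derived from sequencing read proportions per bin multiplied by bin number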
- assay setup: c terminus: a fixed tail appended
Just the number, please, no unit after it.

Solved entries (count: 3):
residues: CTACGSVLEDNIIVVEVQFVESSG [S15V]
assay metric: protein stability index
assay result: 1.91
//
residues: CTACGSVLEDNILVSEVQFVESSG [I13L]
assay metric: protein stability index
assay result: 2.79
//
residues: CTATGSVLEDNIIVSEVQFVESSG [C4T]
assay metric: protein stability index
assay result: 3.21

Req: Answer with reported protein stability index of NTACGSVLEDNIIVSEVQFVESSG [C1N]
Resp: 3.65

Req: Given CTACGSVLEDWIIVSEVQFVESSG [N11W] , respond with its protein stability index.
Resp: 1.01

Req: Answer with reported protein stability index of CTNCGSVLEDNIIVSEVQFVESSG [A3N]
Resp: 4.03

Req: Give recorded protein stability index. CTACGSVLEDNITVSEVQFVESSG [I13T]
Resp: 3.56

Req: Read the entry CTACGSVLEDNIIVSEVQFVTSSG [E21T] and write its reported protein stability index.
Resp: 2.34

Req: In one line, give reported protein stability index of the entry CTACGSVLEDNIIVSEVQFGESSG [V20G] .
Resp: 3.6

Req: Specify measured protein stability index for CTECGSVLEDNIIVSEVQFVESSG [A3E] .
Resp: 3.6

Req: Read the entry CTACGSVLEDNIIVSEVGFVESSG [Q18G] and write its reported protein stability index.
Resp: 3.47

Req: Supply recorded protein stability index for CTACGSVREDNIIVSEVQFVESSG [L8R] here.
Resp: 3.03
